The measured values listed here are drawn from paper PMC10141580.

- Tested on: NCI-60 standardized human tumor cell line panel
- assay-name: cells
- Format: cell-based
- measurement-context: cell line M14 (ME:M14); TMI sheet
Please provide measured NCI-60 screening: Log(GI50) for the entries that follow.
Reply briefly: the number, and no unit.

Give the reported NCI-60 screening: Log(GI50) for COc1cc2cc(C(=O)N3CC(CCl)c4c3cc(OC(=O)N3CCN(C)C5CSSCC53)c3ccccc43)[nH]c2c(OC)c1OC (mixture of isomers) [Me-SS66C-CBI-TMI] (system: NCI-60 standardized human tumor cell line panel). -6.6

Record: COc1cc2cc(C(=O)N3C[C@@H](CCl)c4c3cc(OC(=O)N(CCC(=O)N3CCN(C)CC3)[C@H]3CCSSC3)c3ccccc43)[nH]c2c(OC)c1OC [P-SS60-CBI-TMI] -6.72

Try COc1cc2cc(C(=O)N3C[C@@H](CCl)c4c3cc(OC(=O)N(CCC(=O)N3CCN(C)CC3)C3CCCCC3)c3ccccc43)[nH]c2c(OC)c1OC [P-CC60-CBI-TMI] next. -5.82

How about this compound: COc1cc2cc(C(=O)N3CC(CCl)c4c3cc(OC(=O)N3CCN(C)C5CSSCC53)c3ccccc43)[nH]c2c(OC)c1OC (mixture of isomers) [Me-SS66T-CBI-TMI] -7.98
